Please go through the items and note down their total protein half-life in vivo.
assay: total protein half-life in vivo (active degradation + dilution); higher = more stable protein; conditions: wild type E. coli NCM3722; growth: C-lim chemostat; doubling time 6 h
Give the value in h but do not write h after it.

Data request: Please look up its total protein half-life in vivo: MKTETPSVKIVAITADEAGQRIDNFLRTQLKGVPKSMIYRILRKGEVRVNKKRIKPEYKLEAGDEVRIPPVRVAEREEEAVSPHLQKVAALADVILYEDDHILVLNKPSGTAVHGGSGLSFGVIEGLRALRPEARFLELVHRLDRDTSGVLLVAKKRSALRSLHEQLREKGMQKDYLALVRGQWQSHVKSVQAPLLKNILQSGERIVRVSQEGKPSETRFKVEERYAFATLVRCSPVTGRTHQIRVHTQYAGHPIAFDDRYGDREFDRQLTEAGTGLNRLFLHAAALKFTHPGTGEVMRIEAPMDEGLKRCLQKLRNAR [P0AA39]
Data returned: 5.78

Data request: Please look up its total protein half-life in vivo: MANNTTGFTRIIKAAGYSWKGLRAAWINEAAFRQEGVAVLLAVVIACWLDVDAITRVLLISSVMLVMIVEILNSAIEAVVDRIGSEYHELSGRAKDMGSAAVLIAIIVAVITWCILLWSHFG [P0ABN1]
Data returned: 6.21

Data request: # query: total protein half-life in vivo of entry MYQVVASDLDGTLLSPDHTLSPYAKETLKLLTARGINFVFATGRHHVDVGQIRDNLEIKSYMITSNGARVHDLDGNLIFAHNLDRDIASDLFGVVNDNPDIITNVYRDDEWFMNRHRPEEMRFFKEAVFQYALYEPGLLEPEGVSKVFFTCDSHEQLLPLEQAINARWGDRVNVSFSTLTCLEVMAGGVSKGHALEAVAKKLGYSLKDCIAFGDGMNDAEMLSMAGKGCIMGSAHQRLKDLHPELEVIGTNADDAVPHYLRKLYLS
Data returned: 4.88

Data request: Data request, read-out total protein half-life in vivo, for MYRIVLGKVSTLSAAPLPPGLREQAPQGPRRERWLAGRALLSHTLSPLPEIIYGEQGKPAFAPEMPLWFNLSHSGDDIALLLSDEGEVGCDIEVIRPRANWRWLANAVFSLGEHAEMDAVHPDQQLEMFWRIWTRKEAIVKQRGGSAWQIVSVDSTYHSSLSVSHCQLENLSLAICTPTPFTLTADSVQWIDSVN
Data returned: 4.94

Data request: Can you share its total protein half-life in vivo? I mean this sequence: MFTGSIVAIVTPMDEKGNVCRASLKKLIDYHVASGTSAIVSVGTTGESATLNHDEHADVVMMTLDLADGRIPVIAGTGANATAEAISLTQRFNDSGIVGCLTVTPYYNRPSQEGLYQHFKAIAEHTDLPQILYNVPSRTGCDLLPETVGRLAKVKNIIGIKEATGNLTRVNQIKELVSDDFVLLSGDDASALDFMQLGGHGVISVTANVAARDMAQMCKLAAEGHFAEARVINQRLMPLHNKLFVEPNPIPVKWACKELGLVATDTLRLPMTPITDSGRETVRAALKHAGLL [P0A6L2]
Data returned: 5.47

Data request: Look up total protein half-life in vivo for this sequence: MKITLSKRIGLLAILLPCALALSTTVHAETNKLVIESGDSAQSRQHAAMEKEQWNDTRNLRQKVNKRTEKEWDKADAAFDNRDKCEQSANINAYWEPNTLRCLDRRTGRVITP
Data returned: 5.07

Data request: Can you share its total protein half-life in vivo? I mean this sequence: MKKTAIAIAVALAGFATVAQAAPKDNTWYTGAKLGWSQYHDTGFINNNGPTHENQLGAGAFGGYQVNPYVGFEMGYDWLGRMPYKGSVENGAYKAQGVQLTAKLGYPITDDLDIYTRLGGMVWRADTKSNVYGKNHDTGVSPVFAGGVEYAITPEIATRLEYQWTNNIGDAHTIGTRPDNGMLSLGVSYRFGQGEAAPVVAPAPAPAPEVQTKHFTLKSDVLFNFNKATLKPEGQAALDQLYSQLSNLDPKDGSVVVLGYTDRIGSDAYNQGLSERRAQSVVDYLISKGIPADKISARGMGESNPVTGNTCDNVKQRAALIDCLAPDRRVEIEVKGIKDVVTQPQA [P0A910]
Data returned: 6.7

Data request: Please give the measured total protein half-life in vivo for this sequence: MTKLKLLALGVLIATSAGVAHAEGKFSLGAGVGVVEHPYKDYDTDVYPVPVINYEGDNFWFRGLGGGYYLWNDATDKLSITAYWSPLYFKAKDSGDHQMRHLDDRKSTMMAGLSYAHFTQYGYLRTTLAGDTLDNSNGIVWDMAWLYRYTNGGLTVTPGIGVQWNSENQNEYYYGVSRKESARSGLRGYNPNDSWSPYLELSASYNFLGDWSVYGTARYTRLSDEVTDSPMVDKSWTGLISTGITYKF [P0A908]
Data returned: 5.81

Data request: Look up total protein half-life in vivo for this sequence: MRVLGIETSCDETGIAIYDDEKGLLANQLYSQVKLHADYGGVVPELASRDHVRKTVPLIQAALKESGLTAKDIDAVAYTAGPGLVGALLVGATVGRSLAFAWDVPAIPVHHMEGHLLAPMLEDNPPEFPFVALLVSGGHTQLISVTGIGQYELLGESIDDAAGEAFDKTAKLLGLDYPGGPLLSKMAAQGTAGRFVFPRPMTDRPGLDFSFSGLKTFAANTIRDNGTDDQTRADIARAFEDAVVDTLMIKCKRALDQTGFKRLVMAGGVSANRTLRAKLAEMMKKRRGEVFYARPEFCTDNGAMIAYAGMVRFKAGATADLGVSVRPRWPLAELPAA
Data returned: 4.72

Data request: Given MNKTITALAIMMASFAANASVLPETPVPFKSGTGAIDNDTVYIGLGSAGTAWYKLDTQAKDKKWTALAAFPGGPRDQATSAFIDGNLYVFGGIGKNSEGLTQVFNDVHKYNPKTNSWVKLMSHAPMGMAGHVTFVHNGKAYVTGGVNQNIFNGYFEDLNEAGKDSTAIDKINAHYFDKKAEDYFFNKFLLSFDPSTQQWSYAGESPWYGTAGAAVVNKGDKTWLINGEAKPGLRTDAVFELDFTGNNLKWNKLAPVSSPDGVAGGFAGISNDSLIFAGGAGFKGSRENYQNGKNYAHEGLKKSYSTDIHLWHNGKWDKSGELSQGRAYGVSLPWNNSLLIIGGETAGGKAVTDSVLITVKDNKVTVQN , state its recorded total protein half-life in vivo.
Data returned: 6.33

Data request: Please look up its total protein half-life in vivo: MKSLQALFGGTFDPVHYGHLKPVETLANLIGLTRVTIIPNNVPPHRPQPEANSVQRKHMLELAIADKPLFTLDERELKRNAPSYTAQTLKEWRQEQGPDVPLAFIIGQDSLLTFPTWYEYETILDNAHLIVCRRPGYPLEMAQPQYQQWLEDHLTHNPEDLHLQPAGKIYLAETPWFNISATIIRERLQNGESCEDLLPEPVLTYINQQGLYR [P0A752]
Data returned: 4.95

Recorded values, source the supplement of paper PMC11246515.
